- Test System: 3-oxo-5-alpha-steroid 4-dehydrogenase 2 (Homo sapiens, UniProt P31213)
- Sequence (P31213 whole entry): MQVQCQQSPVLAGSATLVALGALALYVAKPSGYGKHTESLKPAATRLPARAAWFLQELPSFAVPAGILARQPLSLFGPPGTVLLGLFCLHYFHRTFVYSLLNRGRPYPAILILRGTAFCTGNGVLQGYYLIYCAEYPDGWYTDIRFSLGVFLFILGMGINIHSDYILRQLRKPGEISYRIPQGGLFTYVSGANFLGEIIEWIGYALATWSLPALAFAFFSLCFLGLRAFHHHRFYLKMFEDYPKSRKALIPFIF
- Assay Procedure: Inhibitory activity against 5-alpha Reductase-2 on human prostate homogenates from surgically derived benign hyperplastic tissue

# Molecule, IC50
records = [
    ("C[C@]12CCC3=C4C(=O)CCN=C4CCC3[C@@H]1CCC2=O (stereo partly specified)", "> 100 µM"),
]
